# System: UGT1A4 (overall OLZ glucuronidation)
# Assay Info: in vitro
# Condition Label: human, pH 7.5
Quantity Name: inhibition at 2 h, 2000 μM (%)

Nc1nnc(-c2cccc(Cl)c2Cl)c(N)n1; 12

* * *

# Target Under Test: UGT1A4 (Homo sapiens, UniProt P22310)
# Sequence (P22310 29-534): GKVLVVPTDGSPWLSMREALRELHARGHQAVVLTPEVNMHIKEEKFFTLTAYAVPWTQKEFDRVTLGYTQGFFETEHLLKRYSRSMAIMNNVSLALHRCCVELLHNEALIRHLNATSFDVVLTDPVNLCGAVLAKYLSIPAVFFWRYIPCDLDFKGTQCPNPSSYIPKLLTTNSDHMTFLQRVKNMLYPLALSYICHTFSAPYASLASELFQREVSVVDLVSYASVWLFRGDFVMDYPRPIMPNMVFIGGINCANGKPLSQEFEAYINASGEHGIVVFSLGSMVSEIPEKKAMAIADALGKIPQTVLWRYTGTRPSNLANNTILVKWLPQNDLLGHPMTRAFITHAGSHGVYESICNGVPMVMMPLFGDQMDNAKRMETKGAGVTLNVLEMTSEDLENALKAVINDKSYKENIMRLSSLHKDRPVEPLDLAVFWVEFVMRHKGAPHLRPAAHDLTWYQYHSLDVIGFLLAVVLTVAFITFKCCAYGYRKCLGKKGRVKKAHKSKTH
# Assay Info: in vitro
# Condition Label: homogenates from UGT1A4-over-expressing cells, pH 7.5, probe OLZ (olanzapine), 25 μM
Quantity Name: inhibition at 2 h, 2000 μM

Nc1nnc(-c2cccc(Cl)c2Cl)c(N)n1 [LTG, lamotrigine]; 41%
